Values were extracted from patent US20190309034A1.

- Measurement target: Recombinant soluble 60-mer human BAFF (His-HuBAFF 134-285) (human, UniProt Q9Y275 134-285)
- Experimental protocol: cell-based or functional assay
Recorded metric: Soluble 60-mer huBAFF (4 pM) Neutralization IC90
// units = pM; emit number, no label

435A6B3 (antibody, V domains shown) VH: EVQLQQSGPELVKPGASMKMSCKASGYTFTSYVMHWMKQKPGQGLEWIGYLNPNNDGTKYNEKFKGKATLTSDKSSSTAYMELSSLTSEDSAVYYCARGDYSNYFYWYFDVWGAGTTVSVSS VL: DIKMTPSPSSMYASLGERVTITCKASQDINRYLSWFQQKPGKSPKTLIYRANRLVDGVPSRFSGSGSGQDYSLTISSLEYEDMGIYYCLQYDEFPYTFGGGTKLEIK    26

Shifting focus to the binder that follows.
Soluble 60-mer huBAFF (4 pM) Neutralization IC90 for 440E9D12 (antibody, V domains shown) VH: QVRLRESGPGLVAPSQNLFITCTVSGFSLTDYEINWVRQPPGKNLEWLGVIWTGGGTKYNSVLISRLNISKDNSKRQVFFKMTSLQTDDTAIYYCVREGRRYYAMDYWGQGTSVTVSS VL: NIVLTQSPASLPVSLGQRATMSCRASKSVDSYGTSFMHWYQHRPGQPPKLLISLASNLESGVPGRFSGSGSRTDFTLTIDPVEPDDAATYYCQQNNEDPRTFGGGTTLEIK ?
31
